Reference source for all entries: patent US10485800B2

target: MLK3 (Homo sapiens (Human)); test: Radiometric filter plate MLK3 assay; assay type: biochemical; details: read-out: MK3 IC50
Sequence (Q16584 whole entry): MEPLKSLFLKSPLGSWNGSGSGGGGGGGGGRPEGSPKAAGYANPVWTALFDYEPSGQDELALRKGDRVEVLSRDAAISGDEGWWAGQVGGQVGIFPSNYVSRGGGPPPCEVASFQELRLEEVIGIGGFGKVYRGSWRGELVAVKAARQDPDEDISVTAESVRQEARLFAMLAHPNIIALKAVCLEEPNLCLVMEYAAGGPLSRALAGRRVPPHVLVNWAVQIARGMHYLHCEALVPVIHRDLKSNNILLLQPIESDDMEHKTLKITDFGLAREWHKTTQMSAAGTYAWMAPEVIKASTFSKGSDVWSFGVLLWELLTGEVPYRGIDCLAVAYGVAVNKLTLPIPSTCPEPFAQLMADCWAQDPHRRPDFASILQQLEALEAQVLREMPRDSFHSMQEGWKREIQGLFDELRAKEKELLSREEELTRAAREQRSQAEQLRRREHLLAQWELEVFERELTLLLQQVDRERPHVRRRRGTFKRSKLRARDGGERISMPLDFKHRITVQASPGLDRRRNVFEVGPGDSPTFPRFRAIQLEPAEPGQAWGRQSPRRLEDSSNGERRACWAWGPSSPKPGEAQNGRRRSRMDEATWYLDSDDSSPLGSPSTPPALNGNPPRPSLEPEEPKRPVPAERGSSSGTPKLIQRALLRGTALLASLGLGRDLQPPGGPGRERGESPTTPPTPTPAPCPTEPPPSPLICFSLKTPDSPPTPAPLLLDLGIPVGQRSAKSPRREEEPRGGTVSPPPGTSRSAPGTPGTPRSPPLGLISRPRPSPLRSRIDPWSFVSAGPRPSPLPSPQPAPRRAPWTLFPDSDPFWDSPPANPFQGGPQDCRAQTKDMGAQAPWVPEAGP
pIC50: −log10 of the molar value.
Please respond with reported pIC50 for every item in the list.

Q: I am curious: what pIC50 value has been reported for FC1(F)CCN(Cc2ccc(-c3cnc4[nH]cc(-c5ccc6[nH]ccc6c5)c4c3)cc2)CC1 [Example 185] ?
A: 6.00 to 7.00

Q: Request: c1cc2cc(-c3c[nH]c4ncc(-c5ccc(CN6CCNCC6)cc5)cc34)ccc2[nH]1 [Example 168]
A: 6.00 to 7.00

Q: Request: CN1CCN(Cc2ccc(-c3cnc4[nH]cc(-c5ccc6c(O)ccnc6c5)c4c3)cc2)CC1 [Example 178]
A: 6.00 to 7.00

Q: Request: CNC(=O)c1ccc(-c2c[nH]c3ncc(-c4cc(OC)c(OC)c(OC)c4)cc23)cc1 [Example 164]
A: < 6.00

Q: Request: CN1CCN(Cc2ccc(-c3cnc4[nH]cc(-c5ccc6c(c5)CC(=O)N6)c4c3)cc2)CC1 [Example 174]
A: 6.00 to 7.00

Q: Request: COc1ccc(-c2c[nH]c3ncc(-c4ccc(CN5CCN(C)CC5)cc4)cc23)cc1 [Example 171]
A: 6.00 to 7.00

Q: Request: CC(C)(C)C(=O)N1CCN(Cc2ccc(-c3cnc4[nH]cc(-c5ccc6[nH]ccc6c5)c4c3)cc2)CC1 [Example 191]
A: 6.00 to 7.00

Q: Request: [2H]c1cc2cc(-c3c[nH]c4ncc(-c5ccc(CN6CCN(C)CC6)cc5)cc34)ccc2[nH]1 [Example 181]
A: > 7.00

Q: Request: Cc1c[nH]c2ccc(-c3c[nH]c4ncc(-c5ccc(CN6CCN(C)CC6)cc5)cc34)cc12 [Example 176]
A: 6.00 to 7.00

Q: Request: COc1cc(-c2cnc3[nH]c(=O)n(-c4ccc5[nH]ncc5c4)c3n2)cc(OC)c1OC [Example 83]
A: 6.00 to 7.00

Q: Request: CN1CCN(Cc2ccc(-c3cnc4[nH]cc(-c5ccc6scnc6c5)c4c3)cc2)CC1 [Example 175]
A: 6.00 to 7.00

Q: Request: COc1cc(-c2cnc3[nH]c(=O)n(C4CCCC4)c3n2)ccc1N [Example 118]
A: 6.00 to 7.00

Q: Request: FC(F)(F)CN1CCN(Cc2ccc(-c3cnc4[nH]cc(-c5ccc6[nH]ccc6c5)c4c3)cc2)CC1 [Example 207]
A: 6.00 to 7.00

Q: Request: Cc1cc2cc(-c3c[nH]c4ncc(-c5ccc(CN6CCN(C)CC6)cc5)cc34)ccc2[nH]1 [Example 172]
A: 6.00 to 7.00

Q: Request: CN1CCN(Cc2ccc(-c3cnc4[nH]c(=O)n(-c5ccc6[nH]ccc6c5)c4n3)cc2)CC1 [Example 212]
A: 6.00 to 7.00

Q: Request: COc1cc(-c2cnc3c(c2)/C(=C\c2ccncc2)C(=O)N3)cc(OC)c1OC [Example 129]
A: < 6.00

Q: Request: CN1CCN(C(=O)c2cccc(-c3cnc4[nH]cc(-c5ccc6[nH]ccc6c5)c4c3)c2)CC1 [Example 147]
A: > 7.00

Q: Request: CN1CCN(Cc2ccc(-c3cnc4[nH]cc(-c5ccc6[nH]ncc6c5)c4c3)cc2)CC1 [Example 173]
A: 6.00 to 7.00
